- Test system: S. pyogenes
- assay.remarks: Drug-resistance profile towards antibiotics; further: key: R = resistant; S = sensitive
- Assay type: cell-based, Streptococcus pyogenes
measure.name: Drug-resistance profile

compound | result
CO[C@H]1/C=C/O[C@@]2(C)Oc3c(C)c(O)c4c(O)c(c(/C=N/N5CCN(C)CC5)c(O)c4c3C2=O)NC(=O)/C(C)=C\C=C\[C@H](C)[C@H](O)[C@@H](C)[C@@H](O)[C@@H](C)[C@H](OC(C)=O)[C@@H]1C [Rifampicin] | S
C[C@H]1COc2c(N3CCN(C)CC3)c(F)cc3c(=O)c(C(=O)O)cn1c23 [Levofloxacin] | S
CC(=O)NC[C@H]1CN(c2ccc(N3CCOCC3)c(F)c2)C(=O)O1 [Linezolid] | S
CCC[C@@H]1C[C@@H](C(=O)N[C@@H]([C@H]2O[C@H](SC)[C@H](O)[C@@H](O)[C@H]2O)[C@H](C)Cl)N(C)C1 [Clindamycin] | S

// switching to the query compound
Exercise: Supply Drug-resistance profile value. Item: CN(C)c1cc(NC(=O)CNC(C)(C)C)c(O)c2c1C[C@H]1C[C@H]3[C@H](N(C)C)C(O)=C(C(N)=O)C(=O)[C@@]3(O)C(O)=C1C2=O [Tigecycline]
Key: S

###

- System: K. pneumoniae
- assay.remarks: Drug-resistance profile towards antibiotics; further: key: R = resistant; S = sensitive
- Format: cell-based, Klebsiella pneumoniae
measure.name: Drug-resistance profile

compound | Drug-resistance profile
C[C@@H](O)[C@H]1C(=O)N2C(C(=O)O)=C(S[C@@H]3CN[C@H](C(=O)Nc4cccc(C(=O)O)c4)C3)[C@H](C)[C@H]12 | R
O=C(O)c1cn(C2CC2)c2cc(N3CCNCC3)c(F)cc2c1=O | S
C[C@@H]1O[C@@H]1P(=O)(O)O | S
NCC[C@H](O)C(=O)N[C@@H]1C[C@H](N)[C@@H](O[C@H]2O[C@H](CN)[C@@H](O)[C@H](O)[C@H]2O)[C@H](O)[C@H]1O[C@H]1O[C@H](CO)[C@@H](O)[C@H](N)[C@H]1O | R
C[C@@H](O)[C@H]1C(=O)N2C(C(=O)O)=C(SCCN=CN)C[C@H]12 | S
CO/N=C(\C(=O)N[C@@H]1C(=O)N2C(C(=O)[O-])=C(C[N+]3(C)CCCC3)CS[C@H]12)c1csc(N)n1 [Cefepime] | S
CC(C)(O/N=C(\C(=O)N[C@@H]1C(=O)N2C(C(=O)[O-])=C(C[n+]3ccccc3)CS[C@H]12)c1csc(N)n1)C(=O)O | S

// switching to the query compound
Exercise: Supply Drug-resistance profile value. Item: C[C@@H](O)[C@H]1C(=O)N2C(C(=O)O)=C(S[C@@H]3CN[C@H](C(=O)N(C)C)C3)[C@H](C)[C@H]12
Key: S

###

- System: S. pyogenes
- assay.remarks: Drug-resistance profile towards antibiotics; further: key: R = resistant; S = sensitive
- Type: cell-based, Streptococcus pyogenes
measure.name: Drug-resistance profile

smiles.representation | measure.name | result
CC[C@H]1OC(=O)[C@H](C)[C@@H](O[C@H]2C[C@@](C)(OC)[C@@H](O)[C@H](C)O2)[C@H](C)[C@@H](O[C@@H]2O[C@H](C)C[C@H](N(C)C)[C@H]2O)[C@](C)(O)C[C@@H](C)C(=O)[C@H](C)[C@@H](O)[C@]1(C)O | Drug-resistance profile | S
CC(=O)O[C@H]1C[C@@]2(C)[C@@H](C[C@@H](O)[C@H]3[C@@]4(C)CC[C@@H](O)[C@@H](C)[C@@H]4CC[C@@]32C)/C1=C(\CCC=C(C)C)C(=O)O | Drug-resistance profile | S
CN[C@H](CC(C)C)C(=O)N[C@H]1C(=O)N[C@@H](CC(N)=O)C(=O)N[C@H]2C(=O)N[C@H]3C(=O)N[C@H](C(=O)N[C@H](C(=O)O)c4cc(O)cc(O)c4-c4cc3ccc4O)[C@H](O)c3ccc(c(Cl)c3)Oc3cc2cc(c3O[C@@H]2O[C@H](CO)[C@@H](O)[C@H](O)[C@H]2O[C@H]2C[C@](C)(N)[C@H](O)[C@H](C)O2)Oc2ccc(cc2Cl)[C@H]1O | Drug-resistance profile | S
Cc1onc(-c2ccccc2)c1C(=O)N[C@@H]1C(=O)N2[C@@H]1SC(C)(C)[C@@H]2C(=O)O | Drug-resistance profile | R
